TEST DESCRIPTION: Toxicokinetic evaluation of 14-day repeated intragastric administration to SD rats
Type: in vivo
SETUP CONDITIONS: both sexes, SD, rat, plasma, po, 3 mg/kg, repeated intragastric 3.0 mg/kg, Day 14, read-out: Half-life T1/2 (converted)
PARAMETER MEASURED: half-life at 14 day (h)
Give just the number in h; leave the unit off.

The reported value for CC(C)n1c(=O)cc(N[C@@H](C)c2ccccc2)[nH]c1=O [MYK-461, reference compound] in terms of half-life at 14 day is 46.5

---

TEST DESCRIPTION: Toxicokinetic evaluation of 14-day repeated intragastric administration to SD rats
Format: in vivo
SETUP CONDITIONS: both sexes, SD, rat, plasma, po, 5 mg/kg, repeated intragastric 5 mg/kg, Day 7, read-out: Apparent volume of distribution Vz/F
PARAMETER MEASURED: Vd/F at 7 day

The reported value for Cc1ccc(F)c([C@H](C)Nc2nc(=O)n(C3CCOCC3)c(=O)[nH]2)c1 in terms of Vd/F at 7 day is 1.28 L/kg

---

TEST DESCRIPTION: Toxicokinetic evaluation of 14-day repeated intragastric administration to SD rats
Assay type: in vivo
SETUP CONDITIONS: both sexes, SD, rat, plasma, po, 15 mg/kg, repeated intragastric 15 mg/kg, Day 7, read-out: Clearance CL/F
PARAMETER MEASURED: CL/F
Reply with the number, then its unit.

The reported value for Cc1ccc(F)c([C@H](C)Nc2nc(=O)n(C3CCOCC3)c(=O)[nH]2)c1 [Example 16] in terms of CL/F is 3.58 mL/min/kg

---

TEST DESCRIPTION: Toxicokinetic evaluation of 14-day repeated intragastric administration to SD rats
Format: in vivo
SETUP CONDITIONS: both sexes, SD, rat, plasma, po, 5 mg/kg, repeated intragastric 5 mg/kg, Day 1, read-out: Area under curve AUC
PARAMETER MEASURED: AUC (ng·h/mL)
Give just the number in ng·h/mL; leave the unit off.

The reported value for Cc1ccc(F)c([C@H](C)Nc2nc(=O)n(C3CCOCC3)c(=O)[nH]2)c1 [Example 16] in terms of AUC is 30000

---

TEST DESCRIPTION: Toxicokinetic evaluation of 14-day repeated intragastric administration to SD rats
Assay type: in vivo
SETUP CONDITIONS: both sexes, SD, rat, plasma, po, 3 mg/kg, repeated intragastric 3.0 mg/kg, Day 7, read-out: Half-life T1/2 (converted)
PARAMETER MEASURED: half-life at 7 day
Reply with the number, then its unit.

The reported value for CC(C)n1c(=O)cc(N[C@@H](C)c2ccccc2)[nH]c1=O [MYK-461, reference compound] in terms of half-life at 7 day is 190 h

---

TEST DESCRIPTION: Toxicokinetic evaluation of 14-day repeated intragastric administration to SD rats
Format: in vivo
SETUP CONDITIONS: both sexes, SD, rat, plasma, po, 15 mg/kg, repeated intragastric 15 mg/kg, Day 14, read-out: Plasma concentration Cmax
PARAMETER MEASURED: Cmax (ng/mL)
Give just the number in ng/mL; leave the unit off.

The reported value for Cc1ccc(F)c([C@H](C)Nc2nc(=O)n(C3CCOCC3)c(=O)[nH]2)c1 in terms of Cmax is 14100

---

TEST DESCRIPTION: Toxicokinetic evaluation of 14-day repeated intragastric administration to SD rats
Type: in vivo
SETUP CONDITIONS: both sexes, SD, rat, plasma, po, 30 mg/kg, repeated intragastric 30 mg/kg, Day 7, read-out: Half-life T1/2 (converted)
PARAMETER MEASURED: half-life (h)
Give just the number in h; leave the unit off.

The reported value for Cc1ccc(F)c([C@H](C)Nc2nc(=O)n(C3CCOCC3)c(=O)[nH]2)c1 in terms of half-life is 5.9

---

TEST DESCRIPTION: Toxicokinetic evaluation of 14-day repeated intragastric administration to SD rats
Format: in vivo
SETUP CONDITIONS: both sexes, SD, rat, plasma, po, 30 mg/kg, repeated intragastric 30 mg/kg, Day 7, read-out: Apparent volume of distribution Vz/F
PARAMETER MEASURED: Vd/F (L/kg)
Give just the number in L/kg; leave the unit off.

The reported value for Cc1ccc(F)c([C@H](C)Nc2nc(=O)n(C3CCOCC3)c(=O)[nH]2)c1 in terms of Vd/F is 2.15

---

TEST DESCRIPTION: Toxicokinetic evaluation of 14-day repeated intragastric administration to SD rats
Format: in vivo
SETUP CONDITIONS: both sexes, SD, rat, plasma, po, 30 mg/kg, repeated intragastric 30 mg/kg, Day 1, read-out: Area under curve AUC
PARAMETER MEASURED: AUC (µg·h/mL)
Give just the number in µg·h/mL; leave the unit off.

The reported value for Cc1ccc(F)c([C@H](C)Nc2nc(=O)n(C3CCOCC3)c(=O)[nH]2)c1 in terms of AUC is 105

---

TEST DESCRIPTION: Toxicokinetic evaluation of 14-day repeated intragastric administration to SD rats
Assay type: in vivo
SETUP CONDITIONS: both sexes, SD, rat, plasma, po, 1.5 mg/kg, repeated intragastric 1.5 mg/kg, Day 14, read-out: Area under curve AUC
PARAMETER MEASURED: AUC
Reply with the number, then its unit.

The reported value for CC(C)n1c(=O)cc(N[C@@H](C)c2ccccc2)[nH]c1=O [MYK-461, reference compound] in terms of AUC is 6320 ng·h/mL

---

TEST DESCRIPTION: Toxicokinetic evaluation of 14-day repeated intragastric administration to SD rats
Type: in vivo
SETUP CONDITIONS: both sexes, SD, rat, plasma, po, 0.5 mg/kg, repeated intragastric 0.5 mg/kg, Day 14, read-out: Area under curve AUC
PARAMETER MEASURED: AUC (ng·h/mL)
Give just the number in ng·h/mL; leave the unit off.

The reported value for CC(C)n1c(=O)cc(N[C@@H](C)c2ccccc2)[nH]c1=O [MYK-461, reference compound] in terms of AUC is 1560

---

TEST DESCRIPTION: Toxicokinetic evaluation of 14-day repeated intragastric administration to SD rats
Assay type: in vivo
SETUP CONDITIONS: both sexes, SD, rat, plasma, po, 1.5 mg/kg, repeated intragastric 1.5 mg/kg, Day 7, read-out: Plasma concentration Cmax
PARAMETER MEASURED: Cmax at 7 day (ng/mL)
Give just the number in ng/mL; leave the unit off.

The reported value for CC(C)n1c(=O)cc(N[C@@H](C)c2ccccc2)[nH]c1=O [MYK-461, reference compound] in terms of Cmax at 7 day is 269

---

TEST DESCRIPTION: Toxicokinetic evaluation of 14-day repeated intragastric administration to SD rats
Type: in vivo
SETUP CONDITIONS: both sexes, SD, rat, plasma, po, 3 mg/kg, repeated intragastric 3.0 mg/kg, Day 1, read-out: Clearance CL/F
PARAMETER MEASURED: CL/F at 1 day (mL/min/kg)
Give just the number in mL/min/kg; leave the unit off.

The reported value for CC(C)n1c(=O)cc(N[C@@H](C)c2ccccc2)[nH]c1=O [MYK-461, reference compound] in terms of CL/F at 1 day is 4.91

---

TEST DESCRIPTION: Toxicokinetic evaluation of 14-day repeated intragastric administration to SD rats
Assay type: in vivo
SETUP CONDITIONS: both sexes, SD, rat, plasma, po, 30 mg/kg, repeated intragastric 30 mg/kg, Day 1, read-out: Residence time MRT
PARAMETER MEASURED: MRT (h)
Give just the number in h; leave the unit off.

The reported value for Cc1ccc(F)c([C@H](C)Nc2nc(=O)n(C3CCOCC3)c(=O)[nH]2)c1 [Example 16] in terms of MRT is 6.4

---

TEST DESCRIPTION: Toxicokinetic evaluation of 14-day repeated intragastric administration to SD rats
Assay type: in vivo
SETUP CONDITIONS: both sexes, SD, rat, plasma, po, 1.5 mg/kg, repeated intragastric 1.5 mg/kg, Day 14, read-out: Apparent volume of distribution Vz/F
PARAMETER MEASURED: Vd/F at 14 day (L/kg)
Give just the number in L/kg; leave the unit off.

The reported value for CC(C)n1c(=O)cc(N[C@@H](C)c2ccccc2)[nH]c1=O [MYK-461, reference compound] in terms of Vd/F at 14 day is 5.03

---

TEST DESCRIPTION: Toxicokinetic evaluation of 14-day repeated intragastric administration to SD rats
Type: in vivo
SETUP CONDITIONS: both sexes, SD, rat, plasma, po, 0.5 mg/kg, repeated intragastric 0.5 mg/kg, Day 14, read-out: Clearance CL/F
Protocol: With SD rats as test animals, the plasma concentrations of the test compounds and the concentrations of the original forms of the compounds in the administration solutions were measured by LC/MS/MS at different time points after intragastric administration. The toxicokinetic performance of the compound disclosed herein was studied in SD rats and its toxicokinetic profile was evaluated. […]
PARAMETER MEASURED: CL/F at 14 day
Reply with the number, then its unit.

The reported value for CC(C)n1c(=O)cc(N[C@@H](C)c2ccccc2)[nH]c1=O [MYK-461, reference compound] in terms of CL/F at 14 day is 3.06 mL/min/kg
